# STUDY TARGET: human OX2R (Homo sapiens (Human))
# PROTOCOL TEXT: IPOne (IP-1) assay in CHO cells expressing human OX2R
# Format: cell-based
# MEASUREMENT CONDITIONS: CHO, percentage of mean max effect of a reference compound at 1 uM (100% activity by comparison to Orexin A), human OX2R; read-out: Emax (%)
I'd be grateful if you could share measured Emax for these entries.
Entry format: amount then unit.

Looking up COC(=O)N1[C@H](C)C[C@H](NS(=O)(=O)Cc2ccccc2)[C@@H]1CO[C@H]1CC[C@@]2(c3ncc(F)cn3)C[C@H]2C1 , I found its Emax recorded as 96.5%

Summary for this compound, C[C@@H]1C[C@H](NS(C)(=O)=O)[C@H](CO[C@H]2CC[C@@]3(c4ncc(F)cn4)C[C@H]3C2)N1C(=O)OC[C@H]1[C@H](C)C1(F)F : Emax is 105%

The reported value for COC(=O)N1[C@H](C)C[C@H](NS(C)(=O)=O)[C@@H]1CO[C@@H]1CC[C@]2(c3ncc(C)cn3)C[C@@H]2C1 (single isomer, unassigned) in terms of Emax is 54.3%

Entry COC(=O)N1[C@H](C)C[C@H](NS(=O)(=O)CF)[C@@H]1COC1CCC2(c3ncc(F)c(OC)n3)CC2C1 (stereo partly drawn) ; Emax = 97.1%

# Emax of COC(=O)N1[C@H](C(F)F)C[C@H](NS(=O)(=O)C(F)F)[C@@H]1CO[C@H]1CC[C@@]2(c3ncc(F)cn3)C[C@H]2C1 (single isomer, unassigned) = 100%

Summary for this compound, CCS(=O)(=O)N[C@H]1C[C@@H](C(F)F)N(C(=O)OC)[C@H]1COC1CCC2(c3ncc(F)cn3)CC2C1 (stereo partly drawn) : Emax is 101%

* * *

# STUDY TARGET: human OX2R (Homo sapiens (Human), UniProt O43614)
# Sequence (O43614 whole entry): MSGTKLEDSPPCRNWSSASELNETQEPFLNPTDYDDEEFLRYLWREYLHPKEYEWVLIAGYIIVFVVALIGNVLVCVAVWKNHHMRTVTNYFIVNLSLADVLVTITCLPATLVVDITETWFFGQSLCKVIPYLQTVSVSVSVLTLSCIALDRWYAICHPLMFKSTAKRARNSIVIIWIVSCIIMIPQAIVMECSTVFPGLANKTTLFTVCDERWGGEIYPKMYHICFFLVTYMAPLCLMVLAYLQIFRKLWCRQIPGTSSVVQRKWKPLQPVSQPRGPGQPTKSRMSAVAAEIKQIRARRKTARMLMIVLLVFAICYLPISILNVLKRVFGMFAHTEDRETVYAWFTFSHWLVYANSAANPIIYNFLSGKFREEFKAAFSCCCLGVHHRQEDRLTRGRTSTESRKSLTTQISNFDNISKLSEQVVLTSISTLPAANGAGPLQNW
# PROTOCOL TEXT: IPOne (IP-1) assay in CHO cells expressing human OX2R
# Assay type: cell-based
# MEASUREMENT CONDITIONS: CHO, percentage of mean max effect of a reference compound at 1 uM (100% activity by comparison to Orexin A), human OX2R; read-out: Emax (%)
Exercise: for every item that follows, state its recorded Emax.
Number in %, nothing else.

Reported Emax of COC[C@@H]1C[C@H](NS(C)(=O)=O)[C@H](CO[C@H]2CC[C@@]3(c4ncc(F)cn4)C[C@H]3C2)N1C(=O)OC : 103

Field Emax (entry CCS(=O)(=O)N[C@H]1C[C@@H](C)N(C(=O)OC)[C@H]1CO[C@@H]1CC[C@]2(c3ncc(F)cn3)C[C@@H]2C1 ) reads 98.4

get_value(item= COC(=O)N1[C@H](C(F)F)C[C@H](NS(=O)(=O)C2CC2)[C@@H]1COC1CCC2(c3ncc(F)cn3)CC2C1 (stereo partly shown) , readout=Emax) returns 102

Entry COC(=O)N1[C@H](C)C[C@H](NS(=O)(=O)CCl)[C@@H]1CO[C@H]1CC[C@@]2(c3ncc(F)cn3)C[C@H]2C1 ; Emax = 103

What the record says about COC(=O)N1[C@H](C)C[C@H](NS(=O)(=O)C(C)C)[C@@H]1CO[C@H]1CC[C@@]2(c3ncc(F)cn3)C[C@H]2C1 : Emax is 100

According to the records, this compound COC(=O)N1[C@H](C)C[C@H](NS(=O)(=O)CF)[C@@H]1CO[C@H]1CC[C@@]2(c3ncc(F)c(OC)n3)C[C@H]2C1 displays Emax of 100

Reported Emax of CCC(C)S(=O)(=O)N[C@H]1C[C@@H](C)N(C(=O)OC)[C@H]1CO[C@H]1CC[C@@]2(c3ncc(F)cn3)C[C@H]2C1 (stereo partly shown) : 104

Summary for this compound, CC(C)OC(=O)N1CCC[C@H](NS(=O)(=O)C2CC2)[C@@H]1COC1CCC2(c3ncc(F)cn3)CC2C1 (stereo partly shown) : Emax is 104

Given item COC(=O)N1[C@H](C)C[C@H](NS(=O)(=O)C2COC2)[C@@H]1CO[C@H]1CC[C@@]2(c3ncc(F)cn3)C[C@H]2C1 , the value recorded as its Emax is 102

get_value(item= COC(=O)N1[C@H](C)C[C@H](NS(C)(=O)=O)[C@@H]1COC1CCC2(c3ccccc3)CC2C1 (single isomer, unassigned) , readout=Emax) returns 99.6

Sure, the documented Emax for CC(C)OC(=O)N1[C@H](C)C[C@H](NS(=O)(=O)N(C)C)[C@@H]1CO[C@@H]1CC[C@]2(c3ncccn3)C[C@@H]2C1 is 99.5

Record CC(C)OC(=O)N1[C@H](C)C[C@H](NS(C)(=O)=O)[C@@H]1CO[C@@H]1CC[C@]2(c3ncc(Cl)cn3)C[C@@H]2C1 (single isomer, unassigned) , field Emax: 102

GET /value?item= COC(=O)N1[C@H](C)C[C@H](NS(C)(=O)=O)[C@@H]1COC1CCC2(c3nc4c(F)ccc(F)c4s3)CC2C1 (stereo partly shown) &field=Emax returns 57.9
